Catalogue of IC50 readings, one per entry.
# testedSystem: Serine/threonine-protein kinase Chk1 (Homo sapiens)
# Sequence (O14757 whole entry): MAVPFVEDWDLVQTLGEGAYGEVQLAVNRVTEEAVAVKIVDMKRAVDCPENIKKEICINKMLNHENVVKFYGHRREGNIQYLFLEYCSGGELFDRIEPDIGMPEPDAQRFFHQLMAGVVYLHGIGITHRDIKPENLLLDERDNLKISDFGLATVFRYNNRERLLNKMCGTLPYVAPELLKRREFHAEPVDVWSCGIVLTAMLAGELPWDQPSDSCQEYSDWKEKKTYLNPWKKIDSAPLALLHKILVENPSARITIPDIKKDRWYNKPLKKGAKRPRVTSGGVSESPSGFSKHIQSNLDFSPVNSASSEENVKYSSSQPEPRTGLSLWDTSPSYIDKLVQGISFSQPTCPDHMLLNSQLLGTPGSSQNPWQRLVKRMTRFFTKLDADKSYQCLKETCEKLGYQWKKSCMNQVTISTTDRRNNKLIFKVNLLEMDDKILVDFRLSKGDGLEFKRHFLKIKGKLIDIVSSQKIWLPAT
# output: bare number, implied unit nM

Previously resolved entries follow.
{"molecule": "NC1=NC(=O)/C(=C2\\CCNC(=O)c3[nH]c4c(Cl)c(Cl)sc4c32)N1", "testedSystem": "Serine/threonine-protein kinase Chk1 (Homo sapiens)", "IC50, nM": 890}
{"molecule": "O=C1N=C(NCCO)N/C1=C1/CCNC(=O)c2[nH]c3c(Br)csc3c21", "testedSystem": "Serine/threonine-protein kinase Chk1 (Homo sapiens)", "IC50, nM": 280}
{"molecule": "NC1=NC(=O)/C(=C2\\CCNC(=O)c3[nH]c(Br)cc32)N1 [HYMENIALDISINE]", "testedSystem": "Serine/threonine-protein kinase Chk1 (Homo sapiens)", "IC50, nM": 1900}
{"molecule": "NC1=NC(=O)/C(=C2\\CCNC(=O)c3[nH]c4cc(Cl)sc4c32)N1", "testedSystem": "Serine/threonine-protein kinase Chk1 (Homo sapiens)", "IC50, nM": 300}
{"molecule": "O=C1N=C(NCCO)N/C1=C1/CCNC(=O)c2[nH]c3ccsc3c21", "testedSystem": "Serine/threonine-protein kinase Chk1 (Homo sapiens)", "IC50, nM": 1700}

Okay, now this molecule:
The reported Serine/threonine-protein kinase Chk1 (Homo sapiens) IC50 of Nc1nc(C2=C3C(=Nc4ccccc43)C(=O)NCC2)c(O)[nH]1 is 470
